Data credit: patent US20250092030A1

Entries and their measured pEC50 follow.
# SYSTEM NAME: UniProtKB P16066
# Sequence (P16066 33-1061): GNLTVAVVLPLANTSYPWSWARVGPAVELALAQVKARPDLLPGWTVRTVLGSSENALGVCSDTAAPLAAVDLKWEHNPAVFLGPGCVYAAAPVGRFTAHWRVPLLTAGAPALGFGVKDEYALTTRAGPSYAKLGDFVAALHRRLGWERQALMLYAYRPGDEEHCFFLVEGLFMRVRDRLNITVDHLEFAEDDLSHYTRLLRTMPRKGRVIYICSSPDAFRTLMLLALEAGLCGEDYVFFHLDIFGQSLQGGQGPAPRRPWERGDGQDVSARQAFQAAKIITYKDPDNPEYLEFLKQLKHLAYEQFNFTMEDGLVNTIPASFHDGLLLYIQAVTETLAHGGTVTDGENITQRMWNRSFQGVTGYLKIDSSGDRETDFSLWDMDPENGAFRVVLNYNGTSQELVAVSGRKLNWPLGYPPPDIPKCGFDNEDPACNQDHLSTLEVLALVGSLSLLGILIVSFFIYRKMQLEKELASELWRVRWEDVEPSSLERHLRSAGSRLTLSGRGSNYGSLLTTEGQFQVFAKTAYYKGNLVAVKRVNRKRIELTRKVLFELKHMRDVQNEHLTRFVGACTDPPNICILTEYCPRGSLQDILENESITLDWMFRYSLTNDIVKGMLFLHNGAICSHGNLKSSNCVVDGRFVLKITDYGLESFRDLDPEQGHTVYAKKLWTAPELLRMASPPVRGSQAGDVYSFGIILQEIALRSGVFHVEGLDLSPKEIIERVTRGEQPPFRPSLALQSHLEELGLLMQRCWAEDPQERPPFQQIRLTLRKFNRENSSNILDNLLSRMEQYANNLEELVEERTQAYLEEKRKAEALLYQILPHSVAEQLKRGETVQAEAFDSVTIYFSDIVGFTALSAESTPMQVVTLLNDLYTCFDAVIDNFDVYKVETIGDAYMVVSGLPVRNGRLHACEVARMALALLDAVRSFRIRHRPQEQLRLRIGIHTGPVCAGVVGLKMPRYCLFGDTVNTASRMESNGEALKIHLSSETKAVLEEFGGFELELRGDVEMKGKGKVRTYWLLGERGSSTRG
# Sequence (P01160 124-151 partner limits assumed): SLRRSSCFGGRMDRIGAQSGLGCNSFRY
# TEST NAME: cGMP production by HTRF in HEK293 cells overexpressing pGC-A, with ANP
# STUDY CONDITIONS: HEK293 cells overexpressing pGC-A; test compound plus EC20 concentration of ANP; cGMP by HTRF
Just the number, please; pEC50 means minus log10 of the concentration in mol/L.

So for COC(=O)CN1CCC(N2CCCC(C(=O)Nc3nc4c(F)cc(F)cc4s3)C2)C1 (stereo not drawn) , the logged pEC50 turned out to be 6.00

So for Cc1cncnc1N1CCCC(C(=O)Nc2nc3c(F)cc(F)cc3s2)C1 (stereo not drawn) , the logged pEC50 turned out to be 6.40

So for CN(C)CCN1CCCC1C(=O)Nc1nc2c(F)cc(F)cc2s1 (stereo not drawn) , the logged pEC50 turned out to be 6.10

So for CC1NCC1N1CCCC(C(=O)Nc2nc3c(Cl)cc(F)cc3s2)C1 (stereo not drawn) , the logged pEC50 turned out to be 6.89

So for CC(=O)N1CC(N2CCCC(C(=O)Nc3nc4c(Cl)cc(F)cc4s3)C2)C1 (stereo not drawn) , the logged pEC50 turned out to be 5.96
